# protocolSummary: Cycloheximide Counterscreen for Small Molecule Inhibitors of Shiga Toxin; further: read at 38.3 µM for the half of the compounds with a filed dose; 0% is about no effect
# appliedConditions: cell reporter, cycloheximide protein synthesis inhibition counterscreen; hits give high values
Screen size: about 300,000 compounds; about 37,000 (12%) were called active. What follows is part of a selection rich in actives, with near analogues and random picks from the rest.
readout: max response (%)
Kindly answer with a numeric value in %, unit omitted.

chemicalsmiles=COc1cccc(OC)c1OCCN1CCN(C(=O)c2ccco2)CC1 valuemeasured=-3.58
chemicalsmiles=CNC(=O)n1ccc(C(=O)N2CCCCC2)n1 valuemeasured=1.48

Now consider the entry below.
Suppose we examine the compound `COc1ccc(N(CC(=O)Nc2cccc3ccccc23)S(C)(=O)=O)c(OC)c1` ; what max response value has been reported?
-1.55

Every entry's value here was drawn from PubChem BioAssay AID2314.
